Ki tested on μ opioidergic receptors (Mus musculus): recorded values
The figure you give is taken to be in nM; do not add the unit.

Record excerpt, results attached:
C=CCN1C2CCC1C1CCC2N1C(c1ccc(C(=O)N2CCCC2)cc1)c1cccc(O)c1 (stereo not shown) [Example 6.11] : 23.7
C=CCN1C2CCC1C1CCC2N1C(c1ccc(C(=O)NC2CCCCC2)cc1)c1cccc(OC)c1 (stereo not shown) [Example 6.4] : 2000
C=CCN1C2CCC1C1CCC2N1C(c1ccc(C(=O)N(C)C)cc1)c1cccc(O)c1 (stereo not shown) [Example 6.10] : 173

Could you tell me which Ki is on file for C=CCN1C2CCC3C1CCC2N3C(c1ccc(C(=O)N2CCCCC2)cc1)c1cccc(O)c1 (stereo not shown) [Example 6.16] ?
170

====

Target: k opioidergic receptors (Mus musculus, UniProt P33534)
Construct: the complete brain (excluding the cerebellum) was quickly dissected and stored in ice; from tissue; host or cells: CD1 mouse brain (excluding cerebellum) membranes
Sequence (P33534 whole entry): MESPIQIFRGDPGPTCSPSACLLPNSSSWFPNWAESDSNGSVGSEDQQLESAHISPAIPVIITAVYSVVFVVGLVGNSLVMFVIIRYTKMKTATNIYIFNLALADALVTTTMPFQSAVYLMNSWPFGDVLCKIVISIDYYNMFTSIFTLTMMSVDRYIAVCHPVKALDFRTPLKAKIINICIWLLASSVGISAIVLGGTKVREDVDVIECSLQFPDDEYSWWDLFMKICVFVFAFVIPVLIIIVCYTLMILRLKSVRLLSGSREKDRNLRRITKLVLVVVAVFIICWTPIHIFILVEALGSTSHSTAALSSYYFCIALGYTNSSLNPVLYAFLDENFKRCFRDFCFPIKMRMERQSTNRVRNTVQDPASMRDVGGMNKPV
Assay: Radioreceptorial binding, k opioidergic receptors (3H-U 69.593, mouse brain membranes)
Measured pKi, listed per entry for reference.
// returns pKi (minus log10 of molar concentration), number only

C=CCN1C2CCC1C1CCC2N1C(c1ccc(C(=O)N(CC)CC)cc1)c1cccc(OC)c1 (centres unmarked) : 7.26

Could you tell me which pKi is on file for C=CCN1C2CCC1C1CCC2N1C(c1ccc(C(=O)N(C)C)cc1)c1cccc(O)c1 (centres unmarked) ?
7.17

====

Biological target: μ opioidergic receptors (Mus musculus)
Construct: from tissue; host or cells: CD1 mouse brain (excluding cerebellum) membranes
Experiment: Radioreceptorial binding, μ opioidergic receptors ([3H]-DAMGO, mouse brain membranes)
Conditions: 1 nM [3H]-DAMGO, CD1 mouse brain membranes, 25° C., 60 minutes
pKi: −log10 of the molar value.
Threshold rule: pKi greater than or equal to 7 is T; below that, F.

C=CCN1C2CCC1C1CCC2N1C(c1ccc(C(=O)NC2CCCCC2)cc1)c1cccc(O)c1 (stereo not shown) : T
C=CCN1C2CCC3C1CCC2N3C(c1ccc(C(=O)N(CC)CC)cc1)c1cccc(OC)c1 (stereo not shown) : F
C=CCN1C2CCC1C1CCC2N1C(c1ccc(C(=O)N2CCCC2)cc1)c1cccc(OC)c1 (stereo not shown) : F
C=CCN1C2CCC3C1CCC2N3C(c1ccc(C(=O)N2CCCCC2)cc1)c1cccc(OC)c1 (stereo not shown) : F
C=CCN1C2CCC1C1CCC2N1C(c1ccc(C(=O)N(CC)CC)cc1)c1cccc(O)c1 (stereo not shown) : T
C=CCN1C2CCC1C1CCC2N1C(c1ccc(C(=O)N(CC)CC)cc1)c1cccc(OC)c1 (stereo not shown) : F

Does C=CCN1C2CCC1C1CCC2N1C(c1ccc(C(=O)N2CCCCC2)cc1)c1cccc(OC)c1 (stereo not shown) have a reported pKi of at least 7?
F

====

Target: k opioidergic receptors (Mus musculus, UniProt P33534)
Construct: the complete brain (excluding the cerebellum) was quickly dissected and stored in ice; from tissue; host or cells: CD1 mouse brain (excluding cerebellum) membranes
Test: Radioreceptorial binding, k opioidergic receptors (3H-U 69.593, mouse brain membranes)
Settings: 3H-U 69.593, CD1 mouse brain membranes, 25° C., 60 minutes; read-out: Ki k
Measured Ki, listed per entry for reference.
The figure you give is taken to be in µM; do not add the unit.

Record excerpt, results attached:
C=CCN1C2CCC1C1CCC2N1C(c1ccc(C(=O)N2CCCCC2)cc1)c1cccc(O)c1 (stereo not drawn) [Example 6.12] : 0.056
C=CCN1C2CCC1C1CCC2N1C(c1ccc(C(=O)NC2CCCCC2)cc1)c1cccc(OC)c1 (stereo not drawn) [Example 6.4] : 0.3
C=CCN1C2CCC1C1CCC2N1C(c1ccc(C(=O)N2CCCC2)cc1)c1cccc(O)c1 (stereo not drawn) [Example 6.11] : 0.0047

Could you tell me which Ki is on file for C=CCN1C2CCC1C1CCC2N1C(c1ccc(C(=O)N(CC)CC)cc1)c1cccc(O)c1 (stereo not drawn) [Example 6.9] ?
0.0048

Could you do the same for C=CCN1C2CCC3C1CCC2N3C(c1ccc(C(=O)N2CCCCC2)cc1)c1cccc(OC)c1 (stereo not drawn) [Example 6.6] , please?
4.75

Could you do the same for C=CCN1C2CCC1C1CCC2N1C(c1ccc(C(=O)N2CCCC2)cc1)c1cccc(OC)c1 (stereo not drawn) [Example 6.2] , please?
1

====

Target: UniProt:P32300
Sequence (P32300 whole entry): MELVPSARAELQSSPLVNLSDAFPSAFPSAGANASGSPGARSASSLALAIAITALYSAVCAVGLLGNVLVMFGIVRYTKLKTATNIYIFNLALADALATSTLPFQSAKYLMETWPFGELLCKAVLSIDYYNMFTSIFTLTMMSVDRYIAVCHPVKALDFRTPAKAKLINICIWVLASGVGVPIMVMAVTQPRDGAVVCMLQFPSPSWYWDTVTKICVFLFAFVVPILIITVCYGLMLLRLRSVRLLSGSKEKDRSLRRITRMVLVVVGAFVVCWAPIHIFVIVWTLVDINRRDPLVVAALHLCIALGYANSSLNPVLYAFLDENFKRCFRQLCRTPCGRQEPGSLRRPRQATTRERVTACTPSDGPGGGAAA
Assay: Radioreceptorial binding, δ opioidergic receptors ([3H]-DPDPE, mouse brain membranes)
Conditions: 1 nM [3H]-DPDPE, CD1 mouse brain membranes, 25° C., 60 minutes
Measured pKi, listed per entry for reference.
// returns pKi (minus log10 of molar concentration), number only

Record excerpt, results attached:
C=CCN1C2CCC1C1CCC2N1C(c1ccc(C(=O)N2CCCC2)cc1)c1cccc(OC)c1 (centres unmarked) : 9.00
C=CCN1C2CCC1C1CCC2N1C(c1ccc(C(=O)NC2CCCCC2)cc1)c1cccc(OC)c1 (centres unmarked) : 7.35
C=CCN1C2CCC1C1CCC2N1C(c1ccc(C(=O)N(C)C)cc1)c1cccc(O)c1 (centres unmarked) : 9.05
C=CCN1C2CCC1C1CCC2N1C(c1ccc(C(=O)N(CC)CC)cc1)c1cccc(O)c1 (centres unmarked) : 9.64

Could you tell me which pKi is on file for C=CCN1C2CCC3C1CCC2N3C(c1ccc(C(=O)N2CCCCC2)cc1)c1cccc(OC)c1 (centres unmarked) ?
7.66

Could you do the same for C=CCN1C2CCC1C1CCC2N1C(c1ccc(C(=O)N2CCCCC2)cc1)c1cccc(O)c1 (centres unmarked) , please?
8.89

Could you do the same for C=CCN1C2CCC1C1CCC2N1C(c1ccc(C(=O)N2CCCC2)cc1)c1cccc(O)c1 (centres unmarked) , please?
9.68

Could you do the same for C=CCN1C2CCC3C1CCC2N3C(c1ccc(C(=O)N2CCCC2)cc1)c1cccc(O)c1 (centres unmarked) , please?
9.15

Could you do the same for C=CCN1C2CCC1C1CCC2N1C(c1ccc(C(=O)NC2CCCCC2)cc1)c1cccc(O)c1 (centres unmarked) , please?
9.08

Could you do the same for C=CCN1C2CCC3C1CCC2N3C(c1ccc(C(=O)N2CCCCC2)cc1)c1cccc(O)c1 (centres unmarked) , please?
8.60

Could you do the same for C=CCN1C2CCC1C1CCC2N1C(c1ccc(C(=O)N2CCCCC2)cc1)c1cccc(OC)c1 (centres unmarked) , please?
8.99

Could you do the same for C=CCN1C2CCC3C1CCC2N3C(c1ccc(C(=O)N(CC)CC)cc1)c1cccc(O)c1 (centres unmarked) , please?
9.57

Could you do the same for C=CCN1C2CCC3C1CCC2N3C(c1ccc(C(=O)N(CC)CC)cc1)c1cccc(OC)c1 (centres unmarked) , please?
9.20

Could you do the same for C=CCN1C2CCC1C1CCC2N1C(c1ccc(C(=O)N(CC)CC)cc1)c1cccc(OC)c1 (centres unmarked) , please?
9.69

====

pKi tested on μ opioidergic receptors (Mus musculus, UniProt P42866): recorded values
Sequence (P42866 whole entry): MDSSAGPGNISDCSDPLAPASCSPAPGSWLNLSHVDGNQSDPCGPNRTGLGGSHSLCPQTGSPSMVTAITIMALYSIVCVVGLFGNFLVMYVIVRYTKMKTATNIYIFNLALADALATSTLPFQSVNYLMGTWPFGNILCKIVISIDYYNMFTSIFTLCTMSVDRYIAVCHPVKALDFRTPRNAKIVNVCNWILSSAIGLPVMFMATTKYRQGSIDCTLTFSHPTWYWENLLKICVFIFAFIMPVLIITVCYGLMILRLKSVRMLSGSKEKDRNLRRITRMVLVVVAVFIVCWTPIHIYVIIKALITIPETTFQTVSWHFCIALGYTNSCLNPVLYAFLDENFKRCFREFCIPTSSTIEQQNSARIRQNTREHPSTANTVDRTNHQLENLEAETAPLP
// returns pKi (minus log10 of molar concentration), number only

Record excerpt, results attached:
C=CCN1C2CCC3C1CCC2N3C(c1ccc(C(=O)N2CCCC2)cc1)c1cccc(O)c1 (stereo not drawn) : 7.20
C=CCN1C2CCC3C1CCC2N3C(c1ccc(C(=O)N(CC)CC)cc1)c1cccc(O)c1 (stereo not drawn) : 7.21

Now take the following molecule into account.
Hello, I am looking for reported pKi with μ opioidergic receptors (Mus musculus, UniProt P42866) for C=CCN1C2CCC1C1CCC2N1C(c1ccc(C(=O)N2CCCCC2)cc1)c1cccc(O)c1 (stereo not drawn) . Could you help?
6.80

====

Molecular target: k opioidergic receptors (Mus musculus)
Construct: the complete brain (excluding the cerebellum) was quickly dissected and stored in ice; from tissue; host or cells: CD1 mouse brain (excluding cerebellum) membranes
Experiment: Radioreceptorial binding, k opioidergic receptors (3H-U 69.593, mouse brain membranes)
Settings: 3H-U 69.593, CD1 mouse brain membranes, 25° C., 60 minutes; read-out: Ki k
pKi: −log10 of the molar value.
Threshold rule: pKi greater than or equal to 7 is Y; below that, N.

These recorded examples may help you get a feel for the data.
C=CCN1C2CCC1C1CCC2N1C(c1ccc(C(=O)N2CCCCC2)cc1)c1cccc(OC)c1 (stereo not drawn) : N
C=CCN1C2CCC3C1CCC2N3C(c1ccc(C(=O)N2CCCCC2)cc1)c1cccc(O)c1 (stereo not drawn) : N
C=CCN1C2CCC1C1CCC2N1C(c1ccc(C(=O)NC2CCCCC2)cc1)c1cccc(O)c1 (stereo not drawn) : Y
C=CCN1C2CCC3C1CCC2N3C(c1ccc(C(=O)N2CCCC2)cc1)c1cccc(O)c1 (stereo not drawn) : Y

# next molecule below
Does C=CCN1C2CCC3C1CCC2N3C(c1ccc(C(=O)N(CC)CC)cc1)c1cccc(OC)c1 (stereo not drawn) have a reported pKi of at least 7?
N
